- Tested on: DYRK2
- Condition Info: concentration: 1 μM, replicates: in singlicate; n = 1;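 further: KINOMEscan kinase panel screen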
Readout: %Inh

Compound: CS(=O)(=O)CCNCc1nc(-c2ccc3ncnc(Nc4ccc(OCc5ccccc5)c(Cl)c4)c3c2)cs1.Cl [GW582764]
%Inh: 0%

Compound: CNC(=O)c1ccc(C)c(-n2c(C)cc(OCc3ccc(F)cc3F)c(Br)c2=O)c1
%Inh: 0%

Compound: Cc1cccc2c(-c3ccncn3)c(-c3ccc(F)cc3)nn12 [GW515532]
%Inh: 13%

Compound: FC(F)(F)c1ccccc1-c1cc(-c2c[nH]nc2-c2ccccn2)ccn1 [GW679396]
%Inh: 12%

Compound: NS(=O)(=O)c1cccc(N/C=C2\C(=O)Nc3ccc(S(=O)(=O)Cc4c(Cl)cccc4Cl)cc32)c1 [GSK398099]
%Inh: 9%

Compound: COc1ccc(Nc2nccc(N3CCC(NC(=O)C(C)c4ccc(Cl)cc4)C3)n2)cc1 (stereo not shown) [GSK1379735]
%Inh: 3%

Compound: Nc1nccc(-c2c(-c3ccc(F)cc3)ncn2C2CCN(Cc3ccccc3)CC2)n1 [SB-219980]
%Inh: 14%

Compound: COc1cccc(NC(=O)Nc2ccc(C)c(-c3ccc(C(=O)Nc4ccncc4)cc3)c2)c1 [GSK1398474]
%Inh: 22%

**Q:** Please supply the value of reported %Inh for the item COc1ccc(CSc2nnc(-c3ccc4nccn4c3)o2)cc1C(F)(F)F
**A:** 0%

----------
- Tested on: RSK4(Kin.Dom.2-C-terminal)
- Construct: gene RPS6KA6
- Condition Info: concentration: 1 μM, replicates: in singlicate; n = 1
Readout: %Inh (%)
# unit: % | format: bare number

Worked examples, 5 molecules total:
Molecule: Cn1cncc1C(=O)NC1CCN(c2ccnc(Nc3ccc(F)cc3)n2)C1 (stereo not shown)
Unit: %
%Inh: 15

Molecule: CCCCc1nn2ncccc2c1-c1ccnc(NC2CC2)n1
Unit: %
%Inh: 32

Molecule: COC(=O)c1cccc(NC(=O)NC2CCN(c3ccnc(Nc4ccc(F)cc4)n3)C2)c1 (stereo not shown)
Unit: %
%Inh: 0

Molecule: CS(=O)(=O)CCNCc1nc(-c2ccc3ncnc(Nc4ccc(OCc5ccccc5)c(Cl)c4)c3c2)cs1.Cl
Unit: %
%Inh: 8

Molecule: CN1c2ccc(-c3ccc(C(N)=O)cc3)cc2-c2[nH]ncc2S1(=O)=O
Unit: %
%Inh: 38

**Q:** Please supply the value of reported %Inh for the item Cc1ccccc1-c1cc(-c2c[nH]nc2-c2ccccn2)ccn1
**A:** 22

**Q:** Please supply the value of reported %Inh for the item Cc1ccc(NC(=O)Nc2ccccc2)cc1-c1ccc(C(=O)Nc2ccncc2)cc1
**A:** 6

**Q:** Please supply the value of reported %Inh for the item CCn1c(-c2c(N)noc2C)nc2cnccc21
**A:** 22

**Q:** Please supply the value of reported %Inh for the item Cc1cnc(N)c(/C=C/c2cncc(C(=O)NCCc3ccc(Cl)cc3Cl)c2)c1.Cl
**A:** 20

**Q:** Please supply the value of reported %Inh for the item c1ccc(-c2ccnc3[nH]ccc23)cc1
**A:** 17

**Q:** Please supply the value of reported %Inh for the item Nc1cccc(-c2ccc3c(N)n[nH]c3c2)n1
**A:** 17

**Q:** Please supply the value of reported %Inh for the item CCn1c(-c2ccccc2)nc2cnccc21
**A:** 0

**Q:** Please supply the value of reported %Inh for the item COc1ccc(-c2coc3ccc(-c4nnc(C)o4)cc23)cc1
**A:** 15

**Q:** Please supply the value of reported %Inh for the item COc1ccc(Nc2nccc(NCCNC(=O)Nc3cc(C)ccc3C)n2)cc1
**A:** 0

----------
- System: YSK4
- Construct: gene MAP3K19
- Condition Info: concentration: 1 μM, replicates: in singlicate; n = 1
Readout: %Inh

Molecule: CC[C@@H]1CO[C@H](C(=O)Nc2ccccc2)CN1c1cc(-c2ccc3c(N)n[nH]c3c2)nc(NC)n1
%Inh: 1%

Molecule: CCn1c(-c2ccccc2)nc2cnccc21
%Inh: 0%

Molecule: Cc1ccc(NC(=O)c2ccc(Cl)cc2)cc1-c1ccc(C(=O)Nc2ccncc2)cc1
%Inh: 40%

Molecule: COc1ccc(Nc2nccc(N3CCC(NC(=O)C(C)c4ccc(Cl)cc4)CC3)n2)cc1 (stereo not drawn)
%Inh: 0%

Molecule: Cn1cncc1-c1cc2c(Nc3ccc(OCc4ccccc4)cc3)ncnc2cn1
%Inh: 27%

**Q:** Please supply the value of reported %Inh for the item COc1cccc(C2=C(Nc3cc(Cl)c(O)c(Cl)c3)C(=O)NC2=O)c1
**A:** 30%

**Q:** Please supply the value of reported %Inh for the item O=C1NC(=O)C(c2ccc(Cl)cc2)=C1Nc1ccc(O)cc1
**A:** 10%

----------
- System: SIK
- Condition Info: concentration: 1 μM, replicates: in singlicate; n = 1
%Inh for assorted molecules
# unit: % | format: bare number

Worked examples, 10 molecules total:
Molecule: FC(F)(F)c1ccccc1-c1cc(-c2c[nH]nc2-c2ccccn2)ccn1
System Name: SIK
Readout: %Inh
Unit: %
Recorded Result: 0

Molecule: Fc1ccc(-c2nc[nH]c2-c2ccncc2)cc1
System Name: SIK
Readout: %Inh
Unit: %
Recorded Result: 0

Molecule: Nc1nccc(-c2c(-c3ccc(F)cc3)ncn2C2CCN(Cc3ccccc3)CC2)n1
System Name: SIK
Readout: %Inh
Unit: %
Recorded Result: 6

Molecule: COc1ccc(CSc2nnc(-c3ccc4ncsc4c3)o2)cc1C(F)(F)F
System Name: SIK
Readout: %Inh
Unit: %
Recorded Result: 11

Molecule: CC(C)c1ccc(O)cc1Nc1ccnc2ccc(C(F)(F)F)cc12
System Name: SIK
Readout: %Inh
Unit: %
Recorded Result: 0

Molecule: COc1ccc(CSc2nnc(-c3ccc4nccn4c3)o2)cc1C(F)(F)F
System Name: SIK
Readout: %Inh
Unit: %
Recorded Result: 13

Molecule: O=C(Nc1n[nH]c2nc(-c3cccs3)c(Br)cc12)C1CCCC1
System Name: SIK
Readout: %Inh
Unit: %
Recorded Result: 17

Molecule: COc1ccc(-c2coc3ccc(-c4nnc(C)o4)cc23)cc1
System Name: SIK
Readout: %Inh
Unit: %
Recorded Result: 0

Molecule: CS(=O)(=O)Cc1ccc(Nc2nccc(-c3c(-c4cccc(NC(=O)C5CCCCC5)c4)nn4ncccc34)n2)cc1
System Name: SIK
Readout: %Inh
Unit: %
Recorded Result: 0

Molecule: COC(=O)c1cccc(NC(=O)NC2CCN(c3ccnc(Nc4ccc(F)cc4)n3)C2)c1 (stereo not shown)
System Name: SIK
Readout: %Inh
Unit: %
Recorded Result: 2

**Q:** Please supply the value of reported %Inh for the item Cc1ccc(-c2nc(Nc3ccncc3)c3ccccc3n2)s1
**A:** 0

**Q:** Please supply the value of reported %Inh for the item CSc1ccc(-c2nc3n(c2-c2ccncc2)CCC3)cc1
**A:** 0

**Q:** Please supply the value of reported %Inh for the item O=C(Nc1n[nH]c2nc(-c3cccs3)c(Br)cc12)C1CC1
**A:** 0

----------
%Inh for assorted compounds
- System: MAP4K5
- Condition Info: concentration: 1 μM, replicates: in singlicate; n = 1
Record the result as a number with its unit.

Worked examples, 4 compounds total:
Compound: COc1ccc(Nc2nccc(-c3ccc(NC(=O)c4cc5cc(F)ccc5[nH]4)cc3)n2)cc1 [GSK1229496]
%Inh: 0%
--
Compound: Cc1ccc(NC(=O)Nc2ccccc2F)cc1-c1ccc(C(=O)Nc2ccncc2)cc1 [GSK1398477]
%Inh: 27%
--
Compound: COc1cccc(C2=C(Nc3cc(Cl)c(O)c(Cl)c3)C(=O)NC2=O)c1 [SB-390767]
%Inh: 1%
--
Compound: O=c1cc(N2CCOCC2)nc2n(Cc3ccccc3F)ccn12 [GSK2297428]
%Inh: 0%

Attention now shifts to the item below.
**Q:** Please supply the value of reported %Inh for the item CSc1ccc(-c2nc3n(c2-c2ccncc2)CCC3)cc1 [SKF-105561]
**A:** 0%

----------
- Tested on: NLK
- Condition Info: concentration: 1 μM, replicates: in singlicate; n = 1
Readout: %Inh (%)
# unit: % | format: bare number

Compound: O=c1cc(N2CCOCC2)nc2n(Cc3ccccc3F)ccn12
Unit: %
%Inh: 0

Compound: COc1ccc(CSc2nnc(-c3ccc4nccn4c3)o2)cc1C(F)(F)F
Unit: %
%Inh: 18

Compound: Cc1cnc(N)c(/C=C/c2cncc(C(=O)NCCc3ccc(Cl)cc3Cl)c2)c1.Cl
Unit: %
%Inh: 7

Compound: COc1cccc(CNC(=O)NC2CCN(c3ccnc(Nc4ccc(F)cc4)n3)C2)c1 (stereo not drawn)
Unit: %
%Inh: 3

Compound: COc1ccc(Nc2nccc(NCCNC(=O)Nc3cc(C)ccc3C)n2)cc1
Unit: %
%Inh: 0

**Q:** Please supply the value of reported %Inh for the item COc1ccc(CSc2nnc(-c3ccc4c(c3)CCO4)o2)cc1
**A:** 0

**Q:** Please supply the value of reported %Inh for the item CS(=O)(=O)Cc1ccc(Nc2nccc(-c3c(-c4cccc(NC(=O)C5CCCCC5)c4)nn4ncccc34)n2)cc1
**A:** 1

**Q:** Please supply the value of reported %Inh for the item O=C(Nc1n[nH]c2nc(-c3cccs3)c(Br)cc12)C1CC1
**A:** 0

**Q:** Please supply the value of reported %Inh for the item Fc1ccc(-c2nc3n(c2-c2ccncc2)CCS3)cc1
**A:** 64
